Provenance of the data: PubChem BioAssay (NCI)

Test system: CAKI-1 renal
TEST_DETAILS: NCI tumour cell line growth inhibition, 48 h
Task for the reader: assign each of the following molecules its reported TGI.

GET /values?readout=TGI&system=CAKI-1 renal&item= N#CC12C(=O)N=C(N)C1(C#N)C(c1ccco1)NC1=C2CCCC1 (stereo unspecified)
> 100 µM

Lab request: please report TGI under test system CAKI-1 renal for CC1=CC(O)(c2ccc(-c3ccccc3Cl)cc2)OC1=O (stereo unspecified)
> 100 µM

Request: TGI, test system CAKI-1 renal, entry `Cn1cnc([N+](=O)[O-])c1S(=O)(=O)Oc1cccc2ccccc12`
4.07 µM

Report TGI for CC1=NN(c2cccc(Cl)c2)C2(C1=C/C=C/c1ccccc1)C(Cl)C(=O)N2c1nc2ccccc2s1 (stereo unspecified) tested on CAKI-1 renal.
> 49.8 µM

Query TGI on CAKI-1 renal for `[O-][n+]1ccccc1Sc1nc(Sc2cccc[n+]2[O-])nc(Sc2cccc[n+]2[O-])n1`
2.11 µM

// lookup TGI | system=CAKI-1 renal | key= `Cn1cnc([N+](=O)[O-])c1Sc1nc2ccccc2[nH]1`
17.2 µM

Lookup: TGI / CAKI-1 renal / `CSC(=S)N(C)C`
> 100 µM

Kindly state the measured TGI obtained for `CCOC(=O)c1cc2nc3ccccc3c(=O)n2c2ccccc12` with CAKI-1 renal.
> 10 µM

Lab request: please report TGI under test system CAKI-1 renal for `C=CCSc1nnc2cc(CN3CCCC3)c(-c3ccc(Cl)cc3)nn12`
77.5 µM

// lookup TGI | system=CAKI-1 renal | key= `CC[C@H](Nc1ncnc2nc[nH]c12)c1oc2ccccc2c(=O)c1-c1cccc(F)c1`
> 100 µM

Notebook entry, CAKI-1 renal assay: TGI of `CN(C)c1ccc(/C=C(\NC(=O)c2ccccc2)c2nc3ncncc3[nH]2)cc1` = ?
> 100 µM
